Data export: pIC50 values recorded with HDAC1 (Homo sapiens).
Sequence (Q13547 whole entry): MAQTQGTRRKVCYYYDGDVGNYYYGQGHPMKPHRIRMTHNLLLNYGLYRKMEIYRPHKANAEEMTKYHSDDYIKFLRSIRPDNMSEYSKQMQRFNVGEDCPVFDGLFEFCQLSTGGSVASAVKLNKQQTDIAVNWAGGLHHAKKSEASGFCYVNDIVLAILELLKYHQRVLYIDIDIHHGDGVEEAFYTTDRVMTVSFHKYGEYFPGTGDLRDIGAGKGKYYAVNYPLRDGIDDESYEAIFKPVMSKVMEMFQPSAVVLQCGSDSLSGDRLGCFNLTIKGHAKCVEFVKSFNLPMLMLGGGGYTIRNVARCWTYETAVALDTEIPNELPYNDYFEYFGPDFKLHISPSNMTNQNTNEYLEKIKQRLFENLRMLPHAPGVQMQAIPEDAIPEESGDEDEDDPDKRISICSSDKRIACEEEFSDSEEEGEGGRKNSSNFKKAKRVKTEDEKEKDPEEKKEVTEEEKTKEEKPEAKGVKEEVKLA
Please keep in mind that pIC50 is minus log10 of the molar concentration; only the number is needed.

// below: answered molecules
molecule	val
O=c1c(NCc2ccccc2)c(NCc2ccccc2)c1=O [Compound 13b]	5.08
O=c1c(Nc2ccc(Br)cc2)c(Nc2ccc(Br)cc2)c1=O [Compound 13c]	5.09
CN(Cc1ccccc1)c1c(N(C)Cc2ccccc2)c(=O)c1=O [Compound 14b]	4.77

# context switch: different molecule, same pIC50
Q. Which pIC50 is reported for this molecule? CCOc1c(Nc2ccc(F)cc2)c(=O)c1=O [Compound 9b]
A. 5.15

====

Target protein (sequence): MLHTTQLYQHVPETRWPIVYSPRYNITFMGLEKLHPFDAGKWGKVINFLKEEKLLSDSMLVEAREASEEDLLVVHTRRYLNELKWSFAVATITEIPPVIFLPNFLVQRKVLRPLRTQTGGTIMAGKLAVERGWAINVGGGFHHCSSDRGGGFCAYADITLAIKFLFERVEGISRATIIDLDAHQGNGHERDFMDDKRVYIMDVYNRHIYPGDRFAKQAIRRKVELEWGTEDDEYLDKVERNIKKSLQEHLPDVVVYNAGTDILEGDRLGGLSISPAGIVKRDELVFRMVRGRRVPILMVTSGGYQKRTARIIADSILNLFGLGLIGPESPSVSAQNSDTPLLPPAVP
Each record here notes measured IC50.

compound	IC50
O=c1c(NCc2ccccc2)c(NCc2ccccc2)c1=O [Compound 13b]	> 35 µM
O=c1c(Nc2ccc(Br)cc2)c(Nc2ccc(Br)cc2)c1=O [Compound 13c]	> 35 µM
CCOc1c(Nc2ccc(F)cc2)c(=O)c1=O	25 µM

# context switch: different compound, same IC50
Q. Which IC50 is reported for this compound? CN(Cc1ccccc1)c1c(N(C)Cc2ccccc2)c(=O)c1=O [Compound 14b]
A. > 35 µM

====

# targetSystem: HDAC4 (Homo sapiens)
# Sequence (P56524 whole entry): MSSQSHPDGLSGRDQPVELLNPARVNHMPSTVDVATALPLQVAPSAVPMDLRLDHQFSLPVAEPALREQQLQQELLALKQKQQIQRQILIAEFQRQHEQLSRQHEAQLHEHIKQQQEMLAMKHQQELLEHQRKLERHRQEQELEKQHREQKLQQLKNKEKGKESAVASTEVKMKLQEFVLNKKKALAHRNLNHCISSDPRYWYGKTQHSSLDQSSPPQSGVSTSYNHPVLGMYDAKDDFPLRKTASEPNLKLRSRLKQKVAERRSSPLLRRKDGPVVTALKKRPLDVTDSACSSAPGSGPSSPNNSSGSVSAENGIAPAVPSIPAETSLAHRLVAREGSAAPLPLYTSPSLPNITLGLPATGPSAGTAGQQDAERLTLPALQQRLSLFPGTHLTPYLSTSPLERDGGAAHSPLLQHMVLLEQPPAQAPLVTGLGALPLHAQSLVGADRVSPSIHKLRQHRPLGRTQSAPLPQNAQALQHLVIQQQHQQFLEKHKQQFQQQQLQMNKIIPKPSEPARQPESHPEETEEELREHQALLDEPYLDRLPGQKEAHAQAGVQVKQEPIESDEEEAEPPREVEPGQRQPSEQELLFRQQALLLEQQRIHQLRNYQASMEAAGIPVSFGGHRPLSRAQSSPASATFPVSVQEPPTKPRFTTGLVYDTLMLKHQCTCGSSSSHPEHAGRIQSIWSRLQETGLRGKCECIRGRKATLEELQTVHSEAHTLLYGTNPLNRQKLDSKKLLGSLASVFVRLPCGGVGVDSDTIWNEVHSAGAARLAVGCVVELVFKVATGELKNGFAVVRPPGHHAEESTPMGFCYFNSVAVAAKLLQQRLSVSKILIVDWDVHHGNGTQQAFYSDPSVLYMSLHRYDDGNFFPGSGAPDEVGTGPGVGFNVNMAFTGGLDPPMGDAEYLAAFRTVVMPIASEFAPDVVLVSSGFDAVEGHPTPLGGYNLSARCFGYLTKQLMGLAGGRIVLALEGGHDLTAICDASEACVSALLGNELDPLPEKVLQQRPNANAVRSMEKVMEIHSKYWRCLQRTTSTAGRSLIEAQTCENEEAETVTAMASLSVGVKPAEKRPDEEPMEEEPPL
# experimentNotes: HDAC4 fluorometric enzyme inhibition assay, purified recombinant enzyme, 10-point dose-response
# assaySetup: Table 1; purified recombinant HDAC4 1 nM; mean of three independent experiments; >35 µM = weak inhibitor
pIC50: −log10 of the molar value.
Each record here notes measured pIC50.

compound	measureName	val
CCOc1c(N2CCCC2)c(=O)c1=O [Compound 12b]	pIC50	< 4.46
CCOc1c(N2CCSC2)c(=O)c1=O [Compound 12i]	pIC50	< 4.46

# context switch: different compound, same pIC50
Q. Lab request: please report pIC50 under test system HDAC4 (Homo sapiens) for `CCOc1c(Nc2cccc(C)c2)c(=O)c1=O`
A. < 4.46

====

# targetSystem: HDAC8 (Homo sapiens, UniProt Q9BY41)
# Construct: made in house
# Sequence (Q9BY41 whole entry): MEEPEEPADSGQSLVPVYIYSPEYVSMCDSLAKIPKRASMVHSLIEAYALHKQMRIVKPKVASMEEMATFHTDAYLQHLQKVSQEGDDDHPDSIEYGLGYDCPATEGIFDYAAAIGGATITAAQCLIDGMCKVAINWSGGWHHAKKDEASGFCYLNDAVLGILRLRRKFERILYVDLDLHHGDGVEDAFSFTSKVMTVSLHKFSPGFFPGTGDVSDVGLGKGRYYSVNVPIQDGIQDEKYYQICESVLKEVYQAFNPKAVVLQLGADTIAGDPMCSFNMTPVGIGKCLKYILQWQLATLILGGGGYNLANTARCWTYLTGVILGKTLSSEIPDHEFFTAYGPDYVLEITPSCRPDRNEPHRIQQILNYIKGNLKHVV
# experimentNotes: HDAC8 fluorometric enzyme inhibition assay, purified recombinant enzyme, 10-point dose-response
# Assay type: biochemical
# assaySetup: selectivity ratio HDAC8 over HDAC4
Each record here notes measured IC50 (HDAC4)/IC50 (HDAC8).
Lab note: record the figure alone, no unit after it.

// below: answered molecules
molecule	IC50 (HDAC4)/IC50 (HDAC8)
O=c1c(NCc2ccccc2)c(NCc2ccccc2)c1=O [Compound 13b]	2.6
CCOc1c(Nc2ccc(F)cc2)c(=O)c1=O	7.1
O=c1c(Nc2ccc(Br)cc2)c(Nc2ccc(Br)cc2)c1=O [Compound 13c]	5.5

# context switch: different molecule, same IC50 (HDAC4)/IC50 (HDAC8)
Q. Which IC50 (HDAC4)/IC50 (HDAC8) is reported for this molecule? CN(Cc1ccccc1)c1c(N(C)Cc2ccccc2)c(=O)c1=O [Compound 14b]
A. 10.8

Numbers sourced from paper PMC13110267.
